The entries below come with measured fraction of intact chelate values attached.
- Measurement notes: Dissociation of chelates in aq. 0.1M HCl at RT (acid decomplexation kinetic inertness) (Chart 20)
- Format: physicochemical
- Condition label: 1 hour
The reply should be a number in %, with the unit left off.

| Compound | Measurement kind | Observed value |
| --- | --- | --- |
| O=C1C[N@@]2CC[N@]3CC[N@@](CC[N@](CC2)Cc2cccc(n2)-c2cnnn2Cc2cc(-c4ccccc4)cc(n2)C3)CC(=O)[O][Yb][O]1 | fraction of intact chelate | 100 |
| O=C1C[N@@]2CC[N@]3CC[N@@](CC[N@](CC2)Cc2cccc(n2)-c2cnnn2Cc2cc(-c4ccccc4)cc(n2)C3)CC(=O)[O][Tm][O]1 | fraction of intact chelate | 100 |
| O=C1C[N@@]2CC[N@]3CC[N@@](CC[N@](CC2)Cc2cccc(n2)-c2cnnn2Cc2cc(-c4ccccc4)cc(n2)C3)CC(=O)[O][La][O]1 | fraction of intact chelate | 76 |

Then this compound:
Challenge: Requested field: fraction of intact chelate. Item: `O=C1C[N@@]2CC[N@]3CC[N@@](CC[N@](CC2)Cc2cccc(n2)-c2cn(nn2)Cc2cc(-c4ccccc4)cc(n2)C3)CC(=O)[O][Gd][O]1`
Response given: 98

* * *

The entries below come with measured conversion to 1,5-cz-[Ln(Lig)], Sm^III values attached.
- Measurement notes: Formation of 1,5-cz-[Ln(Lig)] from Lig and Ln^III ions (metal dependent click-zip), MOPS/NaOH buffer pH 7.0, analytical HPLC (Charts 1, 2)
- Condition label: Sm^III; after 1 hour at 80° C.; MOPS/NaOH buffer pH 7.0
Kindly report the value followed by its unit.

| Molecule | Measurement kind | Observed value |
| --- | --- | --- |
| C#Cc1cccc(CN2CCN(CC(N)=O)CCN(Cc3cc(-c4ccccc4)cc(CN=[N+]=[N-])n3)CCN(CC(N)=O)CC2)n1 | conversion to 1,5-cz-[Ln(Lig)], Sm^III | 1% |
| C#Cc1cccc(CN2CCN(CC(=O)O)CCN(Cc3cc(-c4ccccc4)cc(CN=[N+]=[N-])n3)CCN(CC(=O)O)CC2)n1 | conversion to 1,5-cz-[Ln(Lig)], Sm^III | 3% |
| [N-]=[N+]=NCc1cccc(CN2CCN(CC(=O)O)CCN(Cc3cccc(C#Cc4ccccc4)n3)CCN(CC(=O)O)CC2)n1 | conversion to 1,5-cz-[Ln(Lig)], Sm^III | 0% |
| C#Cc1cccc(CN2CCN(CC(=O)O)CCN(Cc3cc(C(=O)OC(C)(C)C)cc(CN=[N+]=[N-])n3)CCN(CC(=O)O)CC2)n1 | conversion to 1,5-cz-[Ln(Lig)], Sm^III | 0% |

Then this molecule:
Challenge: Requested field: conversion to 1,5-cz-[Ln(Lig)], Sm^III. Item: `C#CCN(CC#C)CCN1CCN(CC(=O)O)CCN(Cc2cc(-c3ccccc3)cc(CN=[N+]=[N-])n2)CCN(CC(=O)O)CC1`
Response given: 0%

* * *

- Measurement notes: Formation of 1,5-cz-[Ln(Lig)] from Lig and Ln^III ions (metal dependent click-zip), MOPS/NaOH buffer pH 7.0, analytical HPLC (Charts 1, 2)
- Condition label: Yb^III; after 1 week at 80° C.; MOPS/NaOH buffer pH 7.0
Decide using conversion to 1,5-cz-[Ln(Lig)], Yb^III alone. Strictly below 20%: yes (1). Equal to or above 20%: no (0).

Challenge: Hello, I'm reviewing records and need to know if conversion to 1,5-cz-[Ln(Lig)], Yb^III of CC(C)(C#Cc1cccc(CN2CCN(CC(=O)O)CCN(Cc3cccc(CN=[N+]=[N-])n3)CCN(CC(=O)O)CC2)n1)NC(=O)OC(C)(C)C [TD1105] is below 20%. Could you check?
Response given: yes (1)

Challenge: How about CC(C)(N)C#Cc1cccc(CN2CCN(CC(=O)O)CCN(Cc3cc(-c4ccccc4)cc(CN=[N+]=[N-])n3)CCN(CC(=O)O)CC2)n1 [TD1054] ?
Response given: no (0)

Challenge: How about C#Cc1cccc(CN2CCN(CC(=O)O)CCN(Cc3cccc(CN=[N+]=[N-])n3)CCN(CP(=O)(O)O)CC2)n1 [TD714] ?
Response given: no (0)

Challenge: How about C#Cc1cccc(CN2CCN(CP(=O)(O)c3ccccc3)CCN(Cc3cccc(CN=[N+]=[N-])n3)CCN(CP(=O)(O)c3ccccc3)CC2)n1 [TD921] ?
Response given: yes (1)

Challenge: How about C#Cc1cccc(CN2CCN(CC(=O)O)CCN(Cc3cc(-c4ccccc4)cc(CN=[N+]=[N-])n3)CCN(CC(=O)O)CC2)n1 [TD647] ?
Response given: no (0)

Challenge: How about C#Cc1cccc(CN2CCN(CC(N)=O)CCN(Cc3cc(-c4ccccc4)cc(CN=[N+]=[N-])n3)CCN(CC(N)=O)CC2)n1 [TD779] ?
Response given: yes (1)

* * *

The entries below come with measured conversion to 1,5-cz-[M(Lig)], Cd^II values attached.
- Measurement notes: Formation of 1,5-cz-[M(Lig)] from Lig and M^II ions (metal dependent click-zip) (Charts 6, 7)
- Assay type: physicochemical
- Condition label: 1 week at 80° C.; MOPS/NaOH buffer pH 7.0; TD728 in 50% i-PrOH
The reply should be a number in %, with the unit left off.

Reference set, count: 5
| Molecule | conversion to 1,5-cz-[M(Lig)], Cd^II, % |
| --- | --- |
| CC(C)[Si](C#Cc1cccc(CN2CCN(CC(=O)O)CCN(Cc3cccc(CN=[N+]=[N-])n3)CCN(CC(=O)O)CC2)n1)(C(C)C)C(C)C | 36 |
| CC(C)(C)C#Cc1cccc(CN2CCN(CC(=O)O)CCN(Cc3cccc(CN=[N+]=[N-])n3)CCN(CC(=O)O)CC2)n1 | 96 |
| C#Cc1cccc(CN2CCN(CC(=O)O)CCN(Cc3cc(Cl)cc(CN=[N+]=[N-])n3)CCN(CC(=O)O)CC2)n1 | 96 |
| C#Cc1cccc(CN2CCN(CC(=O)O)CCN(Cc3cccc(CN=[N+]=[N-])n3)CCN(CP(=O)(O)O)CC2)n1 | 92 |
| C#Cc1cccc(CN2CCN(CC(=O)O)CCN(Cc3cc(-c4ccccc4)cc(CN=[N+]=[N-])n3)CCN(CC(=O)O)CC2)n1 | 86 |

Then this compound:
Challenge: Requested field: conversion to 1,5-cz-[M(Lig)], Cd^II. Item: `C#Cc1cccc(CN2CCN(CP(=O)(O)c3ccccc3)CCN(Cc3cccc(CN=[N+]=[N-])n3)CCN(CP(=O)(O)c3ccccc3)CC2)n1`
Response given: 96

* * *

- Measurement notes: Formation of 1,5-cz-[Ln(Lig)] from Lig and Ln^III ions (metal dependent click-zip), MOPS/NaOH buffer pH 7.0, analytical HPLC (Charts 1, 2)
- Condition label: Ce^III; after 1 week at 80° C.; MOPS/NaOH buffer pH 7.0
Measurement kind: conversion to 1,5-cz-[Ln(Lig)], Ce^III

Reference set, count: 8
| Molecule | conversion to 1,5-cz-[Ln(Lig)], Ce^III |
| --- | --- |
| C#Cc1cccc(CN2CCN(CCC(=O)O)CCN(Cc3cccc(CN=[N+]=[N-])n3)CCN(CCC(=O)O)CC2)n1 [TD801] | 0% |
| C#Cc1cccc(CN2CCN(CC(=O)O)CCN(Cc3cc(C(=O)OC(C)C)cc(CN=[N+]=[N-])n3)CCN(CC(=O)O)CC2)n1 [TD1148] | 0% |
| [N-]=[N+]=NCc1cccc(CN2CCN(CC(=O)O)CCN(Cc3cccc(C#CC4CC4)n3)CCN(CC(=O)O)CC2)n1 [TD943] | 4% |
| CC(C)(C#Cc1cccc(CN2CCN(CC(=O)O)CCN(Cc3cccc(CN=[N+]=[N-])n3)CCN(CC(=O)O)CC2)n1)NC(=O)OC(C)(C)C [TD1105] | 0% |
| C#Cc1cccc(CN2CCN(CC(=O)O)CCN(Cc3cc(-c4ccccc4)cc(CN=[N+]=[N-])n3)CCN(CC(=O)O)CC2)n1 [TD647] | 50% |
| [N-]=[N+]=NCc1cccc(CN2CCN(CC(=O)O)CCN(Cc3cccc(C#CI)n3)CCN(CC(=O)O)CC2)n1 [TD1204] | 0% |
| [N-]=[N+]=NCc1cccc(CN2CCN(CC(=O)O)CCN(Cc3cccc(C#CC45CC6CC(CC(C6)C4)C5)n3)CCN(CC(=O)O)CC2)n1 [TD992] | 20% |
| C#Cc1cccc(CN2CCN(CC(N)=O)CCN(Cc3cc(-c4ccccc4)cc(CN=[N+]=[N-])n3)CCN(CC(N)=O)CC2)n1 [TD779] | 0% |

Challenge: Requested field: conversion to 1,5-cz-[Ln(Lig)], Ce^III. Item: CC(C)(C)C#Cc1cccc(CN2CCN(CC(=O)O)CCN(Cc3cccc(CN=[N+]=[N-])n3)CCN(CC(=O)O)CC2)n1 [TD959]
Response given: 11%

Challenge: How about [N-]=[N+]=NCc1cc(-c2ccccc2)cc(CN2CCN(CC(=O)O)CCN(Cc3cccc(C#CCN)n3)CCN(CC(=O)O)CC2)n1 [TD722] ?
Response given: 1%

Challenge: How about C#Cc1cccc(CN2CCN(CC(=O)O)CCN(Cc3cc(Cl)cc(CN=[N+]=[N-])n3)CCN(CC(=O)O)CC2)n1 [TD764] ?
Response given: 20%
